# Experimental target: Programmed cell death protein 1/Programmed cell death 1 ligand 1 (Homo sapiens, UniProt Q15116+Q9NZQ7)
# Sequence (Q15116 whole entry): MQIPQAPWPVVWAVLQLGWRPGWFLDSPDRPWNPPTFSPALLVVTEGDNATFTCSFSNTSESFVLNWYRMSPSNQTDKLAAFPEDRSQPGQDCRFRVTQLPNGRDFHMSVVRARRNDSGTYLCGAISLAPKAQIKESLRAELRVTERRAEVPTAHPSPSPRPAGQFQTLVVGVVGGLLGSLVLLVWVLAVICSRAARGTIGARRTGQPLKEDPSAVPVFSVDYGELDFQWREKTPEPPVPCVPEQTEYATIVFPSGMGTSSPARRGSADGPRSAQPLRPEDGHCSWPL
# Sequence (Q9NZQ7 whole entry): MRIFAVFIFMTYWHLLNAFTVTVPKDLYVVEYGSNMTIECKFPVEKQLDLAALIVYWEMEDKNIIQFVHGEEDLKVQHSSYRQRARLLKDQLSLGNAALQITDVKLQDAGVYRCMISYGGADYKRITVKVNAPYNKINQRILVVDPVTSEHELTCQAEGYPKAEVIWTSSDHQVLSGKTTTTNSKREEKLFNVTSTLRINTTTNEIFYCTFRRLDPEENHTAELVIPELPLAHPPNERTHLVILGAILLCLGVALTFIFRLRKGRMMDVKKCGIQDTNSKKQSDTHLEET
# Protocol summary: Antagonist activity at PD1/PD-L1 (unknown origin)
# Assay type: protein-complex assay
Measure name: IC50 (mM)

compound="CC(O)C(NC(=O)NC(CC(N)=O)c1nc(C(N)CO)no1)C(=O)O (stereo unspecified)" value_measured=5

###

# Experimental target: Programmed cell death protein 1/Programmed cell death 1 ligand 1 (Homo sapiens, UniProt Q9NZQ7)
# Protocol summary: Antagonist activity at PD1/PD-L1 (unknown origin) assessed as disruption of PD-1/PD-L1 complex by measuring PD-L1 dimerization measured after 2 hrs by HTRF assay
# Format: protein-complex assay
pIC50: −log10 of the molar value.
// false (0) strictly below 5 in pIC50; true (1) otherwise

smiles_code=Cc1cc2nc(CN)c(NCc3ccccc3)n2cc1OCc1cccc(-c2ccc3c(c2)OCCO3)c1C group_label="true (1)"
smiles_code=Cc1c(COc2ccc3nc(CN)c(NCCc4ccccc4)n3c2)cccc1-c1ccccc1 group_label="false (0)"
smiles_code=Cc1c(COc2ccc3nc(CN)c(NCc4ccccc4)n3c2)cccc1-c1ccc2c(c1)OCCO2 group_label="false (0)"
